# System: B16-F10 cells
# Test details: Cell proliferation assay (CellTiter-Glo) in IFN-gamma treated B16-F10 cells
# Assay type: cell-based
# Setup conditions: 120 h, mouse IFN-gamma 10 ng/mL, read-out: PTPN2 Prolif 5d B16F10 EC50
pEC50: −log10 of the molar value.
Measured parameter: pEC50

See these solved cases before continuing.
Chemical structure | Measured parameter | Recorded measurement
CC(C)CCN1CCC(Nc2cc(O)c(N3CC(=O)NS3(=O)=O)c(F)c2)CC1 | pEC50 | ≤ 4.82
CC(=O)N1CCC[C@H](NCc2cc(O)c(N3CC(=O)NS3(=O)=O)c(F)c2)C1 | pEC50 | 5.72
CC(C)CCN1CCN(Cc2cc(O)c(N3CC(=O)NS3(=O)=O)c(F)c2)CC1 | pEC50 | ≤ 4.82

### Prompt Sample `COC1CCN(Cc2cc(O)c(N3CC(=O)NS3(=O)=O)c(F)c2)CC1` — what was its pEC50?
### Response 5.53

### Prompt Sample `O=C1CN(c2c(O)cc(-c3ccc(CN4CCCC4)cc3)cc2F)S(=O)(=O)N1` — what was its pEC50?
### Response ≤ 4.82

### Prompt Sample `O=C1CN(c2c(O)cc(-c3ccccn3)cc2F)S(=O)(=O)N1` — what was its pEC50?
### Response ≤ 4.82

### Prompt Sample `O=C1CN(c2c(O)cc(C(=O)N[C@H]3CCCNC3)cc2F)S(=O)(=O)N1` — what was its pEC50?
### Response ≤ 4.82

* * *

# Test system: B16-F10 cells
# Test details: Cell proliferation assay (CellTiter-Glo) in IFN-gamma treated B16-F10 cells
# Assay type: cell-based
# Setup conditions: 120 h, mouse IFN-gamma 10 ng/mL, read-out: PTPN2 Prolif 5d B16F10 EC50
pEC50: −log10 of the molar value.
Each entry below carries its recorded pEC50.

See these solved cases before continuing.
Compound | Experimental system | Measured parameter | Recorded measurement
O=C1CN(c2c(O)ccc(CNC3CCOCC3)c2F)S(=O)(=O)N1 [EXAMPLE 101] | B16-F10 cells | pEC50 | ≤ 4.82
CC1(C)CCC(NCc2cc(O)c(N3CC(=O)NS3(=O)=O)c(F)c2)CC1 [EXAMPLE 37] | B16-F10 cells | pEC50 | 6.09
CC1(C)CCC[C@H](NCc2cc(O)c(N3CC(=O)NS3(=O)=O)c(F)c2)C1 [EXAMPLE 66] | B16-F10 cells | pEC50 | 6.11
O=C1CN(c2c(O)cc(CN3CCC(O)CC3)cc2F)S(=O)(=O)N1 [EXAMPLE 52] | B16-F10 cells | pEC50 | 5.16
CC(C)CCN1CCCC(c2cc(O)c(N3CC(=O)NS3(=O)=O)c(F)c2)C1 (centres unmarked) [EXAMPLE 5] | B16-F10 cells | pEC50 | ≤ 4.82
O=C1CN(c2c(O)cc(CN[C@H]3CCCNC3)cc2F)S(=O)(=O)N1 [EXAMPLE 65] | B16-F10 cells | pEC50 | 5.16

### Prompt Sample O=C1CN(c2c(O)cc(C(=O)NC3CCNCC3)cc2F)S(=O)(=O)N1 [EXAMPLE 92] — what was its pEC50?
### Response ≤ 4.82

### Prompt Sample CC(C)CCN1CCN(c2cc(O)c(N3CC(=O)NS3(=O)=O)c(F)c2)CC1 [EXAMPLE 83] — what was its pEC50?
### Response ≤ 4.82

### Prompt Sample O=C1CN(c2c(O)cc(C(=O)N[C@@H]3CCCNC3)cc2F)S(=O)(=O)N1 [EXAMPLE 94] — what was its pEC50?
### Response ≤ 4.82

### Prompt Sample O=C1CN(c2c(O)cc(CN[C@@H]3CCCN(S(=O)(=O)C4CC4)C3)cc2F)S(=O)(=O)N1 [EXAMPLE 74] — what was its pEC50?
### Response 5.25

### Prompt Sample O=C1CN(c2c(O)ccc(CNC3CCCCC3)c2F)S(=O)(=O)N1 [EXAMPLE 100] — what was its pEC50?
### Response ≤ 4.82

### Prompt Sample O=C1CN(c2c(O)cc(-c3ccc(Cc4ccccc4)cc3)cc2F)S(=O)(=O)N1 [EXAMPLE 10] — what was its pEC50?
### Response ≤ 4.82

### Prompt Sample CN(C)[C@H]1CC[C@H](NC(=O)c2cc(O)c(N3CC(=O)NS3(=O)=O)c(F)c2)CC1 [EXAMPLE 96] — what was its pEC50?
### Response ≤ 4.82

### Prompt Sample O=C1CN(c2c(O)cc(N3CCNCC3)cc2F)S(=O)(=O)N1 [EXAMPLE 85] — what was its pEC50?
### Response ≤ 4.82

### Prompt Sample COc1cncc(-c2cc(O)c(N3CC(=O)NS3(=O)=O)c(F)c2)c1 [EXAMPLE 28] — what was its pEC50?
### Response 5.11

### Prompt Sample CNC(=O)[C@H]1CC[C@H](NCc2cc(O)c(N3CC(=O)NS3(=O)=O)c(F)c2)CC1 [EXAMPLE 58] — what was its pEC50?
### Response ≤ 4.82

### Prompt Sample O=C1CN(c2c(O)ccc(C3CCNCC3)c2F)S(=O)(=O)N1 [EXAMPLE 105] — what was its pEC50?
### Response ≤ 4.82

### Prompt Sample O=C1CN(c2c(O)cc(CN[C@@H]3CCCOC3)cc2F)S(=O)(=O)N1 [EXAMPLE 64] — what was its pEC50?
### Response 5.57

### Prompt Sample CN(C)C1CCN(c2cc(O)c(N3CC(=O)NS3(=O)=O)c(F)c2)CC1 [EXAMPLE 87] — what was its pEC50?
### Response ≤ 4.82

* * *

Each entry below carries its recorded pEC50.
# System: B16-F10 cells
# Test details: Cell proliferation assay (CellTiter-Glo) in IFN-gamma treated B16-F10 cells
# Type: cell-based
# Setup conditions: 120 h, mouse IFN-gamma 10 ng/mL, read-out: PTPN2 Prolif 5d B16F10 EC50
pEC50: −log10 of the molar value.

See these solved cases before continuing.
Chemical structure | Experimental system | pEC50
CN(C)CC1CCN(Cc2cc(O)c(N3CC(=O)NS3(=O)=O)c(F)c2)CC1 | B16-F10 cells | ≤ 4.82
CC(C)(O)c1ccc(-c2cc(O)c(N3CC(=O)NS3(=O)=O)c(F)c2)cc1 | B16-F10 cells | ≤ 4.82
NC1CCN(c2cc(O)c(N3CC(=O)NS3(=O)=O)c(F)c2)CC1 | B16-F10 cells | ≤ 4.82
O=C1CN(c2c(O)cc(-c3ccc(N4CCOCC4)cc3)cc2F)S(=O)(=O)N1 | B16-F10 cells | ≤ 4.82

### Prompt Sample `CC1(C)CCC[C@@H](NCc2cc(O)c(N3CC(=O)NS3(=O)=O)c(F)c2)C1` — what was its pEC50?
### Response 6.18

### Prompt Sample `CN1CCN(Cc2cc(O)c(N3CC(=O)NS3(=O)=O)c(F)c2)CC1` — what was its pEC50?
### Response 5.88

### Prompt Sample `O=C1CN(c2c(O)cc(-c3cccc(-c4ccccc4)c3)cc2F)S(=O)(=O)N1` — what was its pEC50?
### Response ≤ 4.82

### Prompt Sample `COCCN1CCC(Nc2cc(O)c(N3CC(=O)NS3(=O)=O)c(F)c2)CC1` — what was its pEC50?
### Response ≤ 4.82

* * *

# Tested on: B16-F10 cells
# Test details: Cell proliferation assay (CellTiter-Glo) in IFN-gamma treated B16-F10 cells
# Type: cell-based
# Setup conditions: 120 h, mouse IFN-gamma 10 ng/mL, read-out: PTPN2 Prolif 5d B16F10 EC50
Measured parameter: EC50

### Prompt Sample N#Cc1ccc(Cl)c(NCc2cc(O)c(N3CC(=O)NS3(=O)=O)c(F)c2)c1 [EXAMPLE 81] — what was its EC50?
### Response ≥ 15 µM

* * *

# Experimental system: PTPN2 enzyme (Homo sapiens, UniProt P17706)
# Sequence (P17706 whole entry, species assumed): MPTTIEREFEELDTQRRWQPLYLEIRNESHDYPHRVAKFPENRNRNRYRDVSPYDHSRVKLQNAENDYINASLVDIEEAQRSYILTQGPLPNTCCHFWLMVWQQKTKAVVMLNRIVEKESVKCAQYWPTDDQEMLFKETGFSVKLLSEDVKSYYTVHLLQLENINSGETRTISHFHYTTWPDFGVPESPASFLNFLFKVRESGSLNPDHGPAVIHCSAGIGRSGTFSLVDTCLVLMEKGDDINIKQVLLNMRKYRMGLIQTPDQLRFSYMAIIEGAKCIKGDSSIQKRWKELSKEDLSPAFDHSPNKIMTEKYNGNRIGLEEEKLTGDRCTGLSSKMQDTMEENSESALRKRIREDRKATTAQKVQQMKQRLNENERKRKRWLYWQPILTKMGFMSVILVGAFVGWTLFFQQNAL
# Test details: PhosphoSens PTPN2 biochemical assay
# Setup conditions: substrate AQT0264 20 μM, room temperature; read-out: PTPN2 BCHEM IC50
pIC50: −log10 of the molar value.
Measured parameter: pIC50

1 = O=C1CN(c2c(O)cc(-c3ccc(-c4ccc(F)cc4)cc3)cc2F)S(=O)(=O)N1
2 = O=C1CN(c2c(O)cc(CN3CCC(F)CC3)cc2F)S(=O)(=O)N1
3 = CN(Cc1cc(O)c(N2CC(=O)NS2(=O)=O)c(F)c1)C1CCCCC1
### Prompt Arrange the 3 compounds by rising pIC50, starting with the smallest. Form entry: ranked labels (order as requested).
### Response 1, 3, 2
(1: 5.70, 3: 6.62, 2: 7.22)

* * *

# System: B16-F10 cells
# Test details: Cell proliferation assay (CellTiter-Glo) in IFN-gamma treated B16-F10 cells
# Type: cell-based
# Setup conditions: 120 h, mouse IFN-gamma 10 ng/mL, read-out: PTPN2 Prolif 5d B16F10 EC50
pEC50: −log10 of the molar value.
Each entry below carries its recorded pEC50.

Molecule | pEC50
O=C1CN(c2c(O)cc(-c3cnc4ccccc4c3)cc2F)S(=O)(=O)N1 [EXAMPLE 24] | ≤ 4.82

### Prompt Sample O=C1CN(c2c(O)cc(-c3cccnc3)cc2F)S(=O)(=O)N1 [EXAMPLE 8] — what was its pEC50?
### Response ≤ 4.82

### Prompt Sample CN1CCN(Cc2ccc(O)c(N3CC(=O)NS3(=O)=O)c2F)CC1 [EXAMPLE 103] — what was its pEC50?
### Response ≤ 4.82

### Prompt Sample O=C1CN(c2c(O)cc(CN[C@H]3CCCN(S(=O)(=O)C4CC4)C3)cc2F)S(=O)(=O)N1 [EXAMPLE 73] — what was its pEC50?
### Response 5.01

### Prompt Sample O=C1CN(c2c(O)cc(CN3CCOCC3)cc2F)S(=O)(=O)N1 [EXAMPLE 41] — what was its pEC50?
### Response 5.45

### Prompt Sample O=C1CN(c2c(O)cc(CNc3cc(F)ccc3Cl)cc2F)S(=O)(=O)N1 [EXAMPLE 80] — what was its pEC50?
### Response ≤ 4.82

### Prompt Sample CC(C)CCN1CCC[C@H](NCc2cc(O)c(N3CC(=O)NS3(=O)=O)c(F)c2)C1 [EXAMPLE 63] — what was its pEC50?
### Response ≤ 4.82

### Prompt Sample O=C1CN(c2c(O)cc(CNC3CCOCC3)cc2F)S(=O)(=O)N1 [EXAMPLE 35] — what was its pEC50?
### Response ≤ 4.82

### Prompt Sample O=C1CN(c2c(O)ccc(CN3CCOCC3)c2F)S(=O)(=O)N1 [EXAMPLE 99] — what was its pEC50?
### Response ≤ 4.82

### Prompt Sample CC(C)CC(=O)N1CCN(Cc2cc(O)c(N3CC(=O)NS3(=O)=O)c(F)c2)CC1 [EXAMPLE 36] — what was its pEC50?
### Response ≤ 4.82

### Prompt Sample O=C1CN(c2c(O)cc(-c3cccc(Oc4ccccc4)c3)cc2F)S(=O)(=O)N1 [EXAMPLE 14] — what was its pEC50?
### Response ≤ 4.82
